Biological target: T1, Human IL12 (His Tag) (human, UniProt P29459 23-219; P29460 23-328)
T1 construct: Bought His-tagged heterodimer
T1 sequence (looked up) 1: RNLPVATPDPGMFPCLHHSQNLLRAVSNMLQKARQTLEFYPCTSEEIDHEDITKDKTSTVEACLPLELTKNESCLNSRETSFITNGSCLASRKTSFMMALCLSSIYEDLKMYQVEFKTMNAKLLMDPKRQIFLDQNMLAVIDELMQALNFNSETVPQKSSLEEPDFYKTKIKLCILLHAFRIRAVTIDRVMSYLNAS
T1 sequence (looked up) 2: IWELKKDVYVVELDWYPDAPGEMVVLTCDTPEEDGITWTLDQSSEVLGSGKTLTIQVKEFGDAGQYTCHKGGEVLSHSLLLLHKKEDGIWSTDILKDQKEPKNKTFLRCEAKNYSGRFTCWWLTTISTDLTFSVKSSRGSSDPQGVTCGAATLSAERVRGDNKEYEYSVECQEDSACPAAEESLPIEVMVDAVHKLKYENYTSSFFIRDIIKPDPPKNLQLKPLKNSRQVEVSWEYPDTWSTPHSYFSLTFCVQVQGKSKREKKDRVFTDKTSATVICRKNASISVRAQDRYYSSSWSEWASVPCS
Assay: FACS competition, IL-12-His 20 nM on 293T-IL-12Rβ1&IL-23R cells; antibody 3.33 µg/mL
Measured MFI accompanies every entry in the list below.
Write it as a number; the unit MFI goes unstated.

Below: 2 binders and their reported MFI.
binder	numeric result
H5L12 (antibody, human IgG1, kappa, V domains shown, human IgG1 / kappa constant regions; also called humanized antibody H5L12) VH: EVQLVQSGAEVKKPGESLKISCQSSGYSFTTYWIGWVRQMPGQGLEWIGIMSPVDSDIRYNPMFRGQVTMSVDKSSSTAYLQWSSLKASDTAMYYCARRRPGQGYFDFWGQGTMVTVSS VL: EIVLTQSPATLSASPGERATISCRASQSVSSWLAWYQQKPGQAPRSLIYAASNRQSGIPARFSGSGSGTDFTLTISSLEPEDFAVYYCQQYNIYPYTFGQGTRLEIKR	31.8
H5L11 (antibody, human IgG1, kappa, V domains shown, human IgG1 / kappa constant regions; also called humanized antibody H5L11) VH: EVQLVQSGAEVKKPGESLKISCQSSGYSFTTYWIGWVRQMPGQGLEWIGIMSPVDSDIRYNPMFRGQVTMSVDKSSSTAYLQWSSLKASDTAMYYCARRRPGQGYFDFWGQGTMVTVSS VL: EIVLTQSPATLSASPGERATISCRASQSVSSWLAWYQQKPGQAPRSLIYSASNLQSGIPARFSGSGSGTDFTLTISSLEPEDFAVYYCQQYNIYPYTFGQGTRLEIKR	42.2

Continue with the next binder.
QUERY: // lookup MFI for H5L10 (antibody, human IgG1, kappa, V domains shown, human IgG1 / kappa constant regions; also called humanized antibody H5L10) VH: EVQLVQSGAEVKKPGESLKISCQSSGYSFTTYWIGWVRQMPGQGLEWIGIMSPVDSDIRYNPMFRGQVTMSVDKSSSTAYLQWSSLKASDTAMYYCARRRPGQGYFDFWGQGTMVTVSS VL: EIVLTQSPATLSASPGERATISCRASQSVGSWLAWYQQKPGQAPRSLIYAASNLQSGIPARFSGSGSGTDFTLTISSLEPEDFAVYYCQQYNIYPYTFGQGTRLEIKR
RESULT: 40.2

// provenance: patent US20220298235A1
